biological target: DCN1 protein (Homo sapiens (Human)); assay: Intact protein MS analysis with the RapidFire-TOF system (covalent adduct formation); assay type: binding; conditions: 400 nM DCN1, incubated at room temperature for 3 hours
Sequence (Q96GG9 whole entry): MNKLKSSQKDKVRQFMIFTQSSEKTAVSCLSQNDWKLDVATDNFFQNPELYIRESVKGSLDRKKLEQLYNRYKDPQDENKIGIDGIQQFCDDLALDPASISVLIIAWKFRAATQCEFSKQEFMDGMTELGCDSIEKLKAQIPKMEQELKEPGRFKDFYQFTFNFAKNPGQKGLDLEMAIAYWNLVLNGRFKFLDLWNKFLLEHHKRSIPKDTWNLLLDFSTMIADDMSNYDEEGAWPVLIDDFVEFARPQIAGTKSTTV
Please go through the items and note down their Emax.

Please review the following examples before continuing.
CCN1C(=O)[C@@H](NC(=O)c2cccc(C(F)(F)F)c2)[C@@H](c2cccc(NC(=O)/C=C/CN(C)C)c2)c2c(C)nn(-c3ccccc3)c21 (racemic): 0 to 30%
C=C(CN1CCN(C2COC2)CC1)C(=O)N(C)Cc1cccc([C@@H]2c3cnn(-c4ccccc4)c3N(CC)C(=O)[C@H]2NC(=O)c2cccc(C(F)(F)F)c2)c1: 80 to 100%
C=C(C(=O)NCc1cccc([C@@H]2c3cnn(-c4ccccc4)c3N(CC)C(=O)[C@H]2NC(=O)c2nccc(C(F)(F)F)n2)c1)C(C)N1CC2(COC2)C1 (some centres unmarked): 80 to 100%

Hey, can you go through the list below and give me Emax for every item?
1. CCN1C(=O)[C@H](NC(=O)c2cccc(C(F)(F)F)c2)[C@@H](c2ccc(F)cc2NC(=O)CC#N)c2cnn(-c3ccccc3)c21 (racemic)
2. CCN1C(=O)[C@H](NC(=O)c2cccc(C(F)(F)F)c2)[C@@H](c2ccccc2NC(=O)COc2c(F)c(F)cc(F)c2F)c2cnn(-c3ccccc3)c21 (racemic)

OUTPUT:
["0 to 30%", "0 to 30%"]

---

Kindly state IC50 for each of the entries shown.
Target: DCN1 (DCUND1) protein PONY domain (Homo sapiens (Human), UniProt Q96GG9)
Experiment: TR-FRET assay (binding to DCN-1, displacement of FAM-labeled probe)
Details: 24 hr after treatment with compound; read-out: TR FRET IC50 24 hr
Procedure: The TR-FRET assay was designed following the Scott et al. protocol (Scott et al., Nat Chem Biol. 2017 August; 13(8): 850-857. doi:10.1038/nchembio.2386). […] The TR-FRET ratio between Tb-DCN1 and the FAM-labeled probe was measured in a 384-well opti-plate (Perkin Elmer) using a plate reader (BMG) at 1, 5, and 24 hrs after treatment with compound (final DMSO concentration of 0.1%). […]

Consider the reported IC50 for these compounds:
C=CC(=O)NCc1cccc([C@@H]2c3cnn(-c4ccccc4)c3N(CC)C(=O)[C@H]2NC(=O)c2cccc(C(F)(F)F)c2)c1 (racemic): 1000 to 3000 nM
CCN1C(=O)[C@@H](NC(=O)c2nccc(C(F)(F)F)n2)[C@H](c2cccc(NC(=O)/C=C/C(=O)N3CCCC3)c2)c2c(C)nn(-c3ccccc3)c21 (racemic): 1000 to 3000 nM
C/C=C(\CN1CCN(C2COC2)CC1)C(=O)N(C)c1cccc([C@@H]2c3cnn(-c4ccccc4)c3N(CC)C(=O)[C@H]2NC(=O)c2csc(C(F)(F)F)n2)c1: 200 to 1000 nM
C=C(CN1C2CCC1COC2)C(=O)NCc1cccc([C@@H]2c3cnn(-c4ccccc4)c3N(CC)C(=O)[C@H]2NC(=O)c2cccc(C(F)(F)F)c2)c1: ≤ 200 nM

With those in mind, consider the next compound.
INPUT: Find the recorded IC50 belonging to C=C(CN1CCN(C2COC2)CC1)C(=O)N(C)Cc1cccc([C@@H]2c3cnn(-c4ccccc4)c3N(CC)C(=O)[C@H]2NC(=O)c2cccc(C(F)(F)F)c2)c1 and report it.
OUTPUT: ≤ 200 nM

---

target: DCN1 (DCUND1) protein PONY domain (Homo sapiens (Human)); test: TR-FRET assay (binding to DCN-1, displacement of FAM-labeled probe); details: TR FRET IC50 1 hr (nM), 1 hr after treatment with compound
quantityName: IC50

C/C=C(\CN1CCOCC1)C(=O)NCc1cccc([C@H]2c3cnn(-c4ccccc4)c3N(CC)C(=O)[C@@H]2NC(=O)c2cccc(C(F)(F)F)c2)c1: 1000 to 3000 nM
C=C(CN1CCN(C2COC2)CC1)C(=O)NCc1cccc([C@@H]2c3cnn(-c4ccccc4)c3N(CC)C(=O)[C@H]2NC(=O)c2nccc(C(F)(F)F)n2)n1 [Compound I-333]: 200 to 1000 nM
CCN1C(=O)[C@H](NC(=O)c2cccc(C(F)(F)F)c2)[C@@H](c2ccccc2NC#N)c2cnn(-c3ccccc3)c21 (racemic): 1000 to 3000 nM

Below are some compounds; for each one, tell me its IC50.
1. CCN1C(=O)[C@@H](NC(=O)c2cccc(C(F)(F)F)c2)[C@H](c2cccc(CNC(=O)C3=CCCN(C)C3)c2)c2cnn(-c3ccccc3)c21
2. CCN1C(=O)[C@H](NC(=O)c2cccc(C(F)(F)F)c2)[C@@H](c2cccc(NC(=O)/C(C#N)=C/C3CC3)c2)c2c(C)nn(-c3ccccc3)c21 (racemic)
3. C=C(CN1CCOCC1)C(=O)Nc1cccc([C@H]2c3c(C)nn(-c4ccccc4)c3N(CCO)C(=O)[C@@H]2NC(=O)c2cccc(C(F)(F)F)c2)c1 (racemic)
4. C/C=C/C(=O)Nc1cccc([C@H]2c3c(C)nn(-c4ccccc4)c3N(CC)C(=O)[C@H]2NC(=O)c2cccc(C(F)(F)F)c2)c1 (racemic)
5. C=C(CN1CCOCC1)C(=O)NCc1cccc([C@@H]2c3cnn(-c4ccccc4)c3N(CC)C(=O)[C@H]2NC(=O)c2ccn(C)n2)c1
6. C/C=C(\CN(C)C1COC1)C(=O)Nc1cccc([C@@H]2c3cnn(-c4ccccc4)c3N(CC)C(=O)[C@H]2NC(=O)c2nccc(C(F)(F)F)n2)c1
7. CCN1C(=O)[C@H](NC(=O)c2cccc(C(F)(F)F)c2)[C@@H](c2ccccc2N(C)C#N)c2cnn(-c3ccccc3)c21 (racemic)

OUTPUT:
1: 1000 to 3000 nM; 2: ≤ 200 nM; 3: ≤ 200 nM; 4: > 3000 nM; 5: 1000 to 3000 nM; 6: 200 to 1000 nM; 7: 1000 to 3000 nM

INPUT: Please report the recorded IC50 for C=C(C(=O)NCc1cccc([C@@H]2c3cnn(-c4ccccc4)c3N(CC)C(=O)[C@@H]2NC(=O)c2nccc(C(F)(F)F)n2)c1)C(C)N1CC2(COC2)C1 (some centres unmarked) .
OUTPUT: 1000 to 3000 nM

---

Answer each item with its documented kinact.
molecular target: DCN2 (DCUND2) protein PONY domain (Homo sapiens (Human)); assay: DCN2 TR-FRET assay, measurement of Kinact/KI; format: binding
Sequence (Q6PH85 60-248): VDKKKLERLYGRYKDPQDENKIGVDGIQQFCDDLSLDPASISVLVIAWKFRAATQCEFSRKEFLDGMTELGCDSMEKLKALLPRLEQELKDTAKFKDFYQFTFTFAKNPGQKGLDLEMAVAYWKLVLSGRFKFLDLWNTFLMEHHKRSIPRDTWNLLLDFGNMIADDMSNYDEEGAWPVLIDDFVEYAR

C/C=C(\CN1CCN(C2COC2)CC1)C(=O)Nc1cccc([C@@H]2c3cnn(-c4ccccc4)c3N(CC)C(=O)[C@H]2NC(=O)c2ccn(C(F)(F)F)n2)c1 [Compound I-383]: 0.00333 to 0.005 s⁻¹
C/C=C(\CN1CCN(C2COC2)CC1)C(=O)Nc1cccc([C@@H]2c3cnn(-c4ccccc4)c3N(CC)C(=O)[C@H]2NC(=O)c2csc(C(F)(F)F)n2)c1 [Compound I-234]: 0.00167 to 0.00333 s⁻¹

For the 3 compounds below, give their kinact values.
1. C=C(CN1CCOCC1)C(=O)NC[C@@H](NC(=O)[C@H](Cc1nc2ccc(C(C)C)cc2s1)NC(=O)CC)C1CCCCC1 [Compound C1, reference compound]
2. C=C(C(=O)NCc1cccc([C@@H]2c3cnn(-c4ccccc4)c3N(CC)C(=O)[C@H]2NC(=O)c2csc(C(F)(F)F)n2)c1)C(C)N(C)C1COC1 (some centres unmarked) [Compound I-305]
3. C=C(CN1CCOCC1)C(=O)Nc1cccc([C@@H]2c3c(C)nn(-c4ccccc4)c3N(CC)C(=O)[C@H]2NC(=O)c2cccc(C(F)(F)F)c2)c1 [Compound I-2]

OUTPUT:
1. 0.005 to 0.00833 s⁻¹
2. 0.005 to 0.00833 s⁻¹
3. 0.00333 to 0.005 s⁻¹

---

molecular target: DCN1 (DCUND1) protein PONY domain (Homo sapiens (Human), UniProt Q96GG9); assay: TR-FRET assay (binding to DCN-1, displacement of FAM-labeled probe); details: 24 hr after treatment with compound; read-out: TR FRET IC50 24 hr
pIC50: −log10 of the molar value.
Kindly state pIC50 for each of the entries shown.

// worked examples, pIC50 included
C=C(CN1CC(F)(F)C1)C(=O)NCc1cccc([C@@H]2c3cnn(-c4ccccc4)c3N(CC)C(=O)[C@H]2NC(=O)c2cccc(C(F)(F)F)c2)c1: ≥ 6.70
CCN1C(=O)[C@@H](NC(=O)c2cccc(C(F)(F)F)c2)[C@H](c2cccc(NC(=O)C3=C(C(=O)OC)CCC3)c2)c2c(C)nn(-c3ccccc3)c21 (racemic): 5.52 to 6.00
C/C=C(\CN1CCC1)C(=O)Nc1cccc([C@@H]2c3cnn(-c4ccccc4)c3N(CC)C(=O)[C@H]2NC(=O)c2nccc(C(F)(F)F)n2)c1: ≥ 6.70

Look at each molecule and report its pIC50.
1. CCN1C(=O)[C@@H](NC(=O)c2cccc(C(F)(F)F)c2)[C@H](c2cccc(CN(C)C/C=C/C(=O)N(C)C)c2)c2cnn(-c3ccccc3)c21
2. C/C=C(\CN1CCC(F)(F)C1)C(=O)Nc1cccc([C@@H]2c3cnn(-c4ccccc4)c3N(CC)C(=O)[C@H]2NC(=O)c2nccc(C(F)(F)F)n2)c1

OUTPUT:
1: 5.52 to 6.00; 2: ≥ 6.70
